- Target or system: TRPA1 (Homo sapiens, UniProt O75762)
- Construct: expressed in transfected cells; host or cells: HEK293T cells, transient transfection with Lipofectamine 2000
- Sequence (O75762 whole entry): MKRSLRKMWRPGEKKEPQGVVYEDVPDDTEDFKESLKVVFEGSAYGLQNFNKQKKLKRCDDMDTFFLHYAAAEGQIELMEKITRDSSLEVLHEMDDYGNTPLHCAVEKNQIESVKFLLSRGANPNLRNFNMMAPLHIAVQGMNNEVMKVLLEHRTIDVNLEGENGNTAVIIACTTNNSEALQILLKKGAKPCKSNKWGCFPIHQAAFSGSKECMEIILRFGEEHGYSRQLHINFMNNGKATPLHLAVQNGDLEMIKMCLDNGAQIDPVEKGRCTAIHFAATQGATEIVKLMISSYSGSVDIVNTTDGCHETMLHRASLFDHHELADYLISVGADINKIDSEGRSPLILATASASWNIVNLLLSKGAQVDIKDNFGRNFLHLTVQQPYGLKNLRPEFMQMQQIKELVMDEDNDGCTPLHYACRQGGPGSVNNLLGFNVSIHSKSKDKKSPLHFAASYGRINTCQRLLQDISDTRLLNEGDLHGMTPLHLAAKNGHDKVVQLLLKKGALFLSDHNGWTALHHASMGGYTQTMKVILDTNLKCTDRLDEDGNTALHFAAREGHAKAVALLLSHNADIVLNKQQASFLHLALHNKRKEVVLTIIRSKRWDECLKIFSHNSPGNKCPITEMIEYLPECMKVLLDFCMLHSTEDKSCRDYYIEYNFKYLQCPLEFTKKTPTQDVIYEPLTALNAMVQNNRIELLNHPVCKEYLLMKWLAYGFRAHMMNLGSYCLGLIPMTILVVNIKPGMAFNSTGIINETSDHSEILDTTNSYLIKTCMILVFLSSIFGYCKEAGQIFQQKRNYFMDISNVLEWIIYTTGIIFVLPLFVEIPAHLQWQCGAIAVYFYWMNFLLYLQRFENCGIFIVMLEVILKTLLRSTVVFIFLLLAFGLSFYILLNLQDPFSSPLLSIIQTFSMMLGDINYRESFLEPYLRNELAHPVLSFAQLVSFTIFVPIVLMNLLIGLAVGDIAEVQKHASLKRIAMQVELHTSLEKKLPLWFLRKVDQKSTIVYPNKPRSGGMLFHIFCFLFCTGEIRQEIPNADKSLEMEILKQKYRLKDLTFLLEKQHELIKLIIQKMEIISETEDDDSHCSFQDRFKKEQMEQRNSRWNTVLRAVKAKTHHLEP
- Experiment description: Test 9: TRPA1 activity test, cells with forced expression of TRPA1
- Assay type: cell-based
- Measurement setup: ratio of maximum ΔRFU values; concentration after adding per Table 7
Property measured: Δ RFU in cells with forced expression of TRPA1 / Δ RFU in non-transformed cells

a: CCCCCCCC(=O)OCCC(C)C [Comparative Example 13, Isoamyl caprylate, reference compound]
b: CCCCCC(=O)OCCC [Example 23, Propyl caproate]
c: CCCCCCCC(=O)OCC [Example 28, Ethyl caprylate]
// ascending sort on Δ RFU in cells with forced expression of TRPA1 / Δ RFU in non-transformed cells for the entries above Put the labels in the order asked and list them.
a, b, c
